- STUDY_TARGET: BIR2 domain of XIAP (Homo sapiens (Human), UniProt P98170, C202A/C213G)
- Sequence (P98170 124-240 with tags or gaps C202A/C213G limits assumed): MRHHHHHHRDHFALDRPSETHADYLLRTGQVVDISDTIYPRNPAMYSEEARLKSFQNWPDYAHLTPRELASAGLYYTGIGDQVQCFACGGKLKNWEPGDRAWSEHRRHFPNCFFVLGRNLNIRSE
- METHOD_DESCRIPTION: TR-FRET assay for BIR2 (inhibition of binding of XIAP BIR2 domain to SMAC-derived Peptide A)
- MEASUREMENT_CONDITIONS: IC50 BIR2
For each entry below, report its IC50 value.
State the result as a value with its unit after it.

# return recorded IC50 for entry CCN[C@@H](CC)C(=O)NC1C(=O)N(Cc2c(OC)ccc3c(Br)cccc23)c2ccccc2N(c2ccccc2)C1=O (some centres unmarked) 32.5 nM

Specify IC50 for CC[C@H](NC)C(=O)NC1C(=O)N(Cc2c(C)ccc3ccccc23)c2ccccc2N(c2ccccc2)C1=O (some centres unmarked) and stop. 68.7 nM

Specify measured IC50 for CN[C@@H](C)C(=O)NC1C(=O)N(Cc2c(OC)ccc3cc(Br)ccc23)c2ccccc2N(c2ccccc2)C1=O (some centres unmarked) . 4.99 nM

Note down IC50 recorded for CC[C@H](N)C(=O)NC1C(=O)N(Cc2c(OC)ccc3c(Br)cccc23)c2ccccc2N(c2ccccc2)C1=O (some centres unmarked) 29.8 nM

Return value of IC50 for input CN[C@@H](C)C(=O)NC1C(=O)N(Cc2c(C)ccc3ccccc23)c2ccccc2N(c2ccccc2)C1=O (some centres unmarked) , no commentary. 39.8 nM

# credit: patent US10053431B2
